Origin of the recorded values: PubChem BioAssay (NCI)

System: CCRF-CEM leukemia
Assay: NCI-60 one-dose screen, 48 h (100 = growth as untreated, 0 = no growth, -100 = all killed)
Conditions: 10 µM unless noted
This is part of a sample that, as a whole, favours compounds with a hit. Of some 83,000 tested, about 20% had one in any assay.
Output: class label from growth. Mapping: group 1 (below 50%), group 2 (50% to below 90%), group 3 (90% or more)

Some entries whose results are on file:
{"columns": ["compound", "class"],
 "data": [
  ["COCCC[C@H]1O[C@@](O)([C@H](C)[C@@H]2CC(OC)C(O)/C=C(C)/C=C(C)/C=C(\\C)C(OC3O[C@@H](C)[C@H](O)C(O)[C@@H]3O)C(C)/C=C(C)/C=C(OC)/C=C(\\C)C(=O)O2)C(OC)C(O)[C@]1(C)O[C@H]1C[C@@H](O)[C@H](O[C@H]2C[C@](C)(O)[C@H](O)C(C)O2)C(C)O1 (stereo partly drawn)", "group 2"],
  ["O=C(COc1ccc(C2SCC(=O)N2c2ccccc2)cc1)c1ccccc1 (stereo not drawn)", "group 3"]
]}

Req: Just checking, what class would you give Clc1ccc(-c2csc(Nc3cccc(Nc4csc(-c5ccc(Cl)cc5)n4)c3)n2)cc1 here?
Resp: group 3

Req: Looking at C=CCn1c(SCC(=O)Nc2ccc(OC)cc2)nnc1-c1ccc(Cl)cc1 , which class would you pick?
Resp: group 3

Req: Assign a category based on measured growth for NS(=O)(=O)c1ccc(Nc2nc(N/N=C/c3ccc(F)cc3)nc(Nc3ccccc3)n2)cc1 and give only the class name.
Resp: group 1

Req: Quick check: band for ClC(Cl)c1nc(-c2cccs2)n2nc(-c3ccccc3)cc2n1
Resp: group 2

###

System: OVCAR-3 ovarian
Experiment: NCI-60 one-dose screen, 48 h
Conditions: 10 µM unless noted
The panel holds about 83,000 compounds, 20% with a hit somewhere; the sample as a whole holds those more often. Activity calls are given as the source filed them. Rule for the calls: active = growth percent below 10; inactive = the rest.
Parameter call: string, one of 1 (active), 0 (inactive)

Below, 3 compounds whose answers are already recorded.
{"columns": ["compound", "class"],
 "data": [
  ["N/C(=N\\OC(=O)CSc1nc2ccccc2s1)c1ccc2ccccc2c1", 0],
  ["O=C(NCCCNc1cc(-c2cn(-c3ccccc3)nc2-c2cccc(O)c2)ccn1)Nc1cccc(C(F)(F)F)c1", 0],
  ["O=[N+]([O-])c1ccc(-c2nnc(SCc3ccc(O)c4ncccc34)n2-c2ccccc2)cc1", 0]
]}

Req: Please share the test call associated with O=C(COc1ccc(C2SCC(=O)N2c2ccccc2)cc1)c1ccccc1 (centres undefined) .
Resp: 0

Req: Answer briefly: the call reported for CCCCCCNC(=O)Oc1ccc(/C(=C(/C)c2ccc(Cl)cc2)c2ccc(OCCN3CCCC3)cc2)cc1 in this assay.
Resp: 0

###

Test system: HCC-2998 colon
Assay: NCI-60 one-dose screen, 48 h (100 = growth as untreated, 0 = no growth, -100 = all killed)
Details: 10 µM unless noted
The panel holds about 83,000 compounds, 20% with a hit somewhere; the sample as a whole holds those more often.
Exercise: state measured growth for each of the compounds provided.
Numbers only, in %.

Reference set, count: 3
{"columns": ["sample_smiles", "growth [%]"],
 "data": [
  ["Nc1n[nH]c2cccc(C#Cc3cccc(NC(=O)c4cccc(OC(F)(F)F)c4)c3)c12", 38],
  ["COc1ccc(-c2no[n+]([O-])c2Nc2ccccc2Br)cc1", 111],
  ["Cn1cc(-c2nnc(N)nc2-c2cn(C)c3ccc(F)cc23)c2cc(F)ccc21", 104]
]}

For each entry beneath this line, provide reported growth.
1. Oc1ccc(CSc2nnc(-c3ccc(Oc4ccccc4)cc3)n2-c2ccccc2)c2cccnc12
2. CC(=O)Nc1ccc(C)c(Nc2cc(-c3ccc(-n4cccn4)cc3)[nH]n2)c1
3. CCC(=O)Nc1cc(Nc2cc(NC3CC3)n3ncc(C#N)c3n2)ccc1C
4. Cc1ccc(/C=C/c2nn3c(-c4ccco4)nnc3s2)cc1
5. Oc1ccc(CSc2nnc(-c3ccc(Br)cc3)o2)c2cccnc12
6. C(=C(\C1=NCCN1)n1cnc2ccccc21)/c1cccc2ccccc12

Resp:
30.3
83.2
41.6
114
44.9
92.9
